# test-summary: Cell Viability - SH-SY5Y (AID 544);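 further: cells exposed to compound for 40 hours; nearly all actives have a fitted effect of over 55% in size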
# test-settings: SH-SY5Y neuroblastoma cell viability
Inconclusive results are not listed. Activity calls are given as the source filed them. The call rests on the fitted dose curve; in most records, active means well fitted cell-killing curve with a large enough effect; inconclusive means small, poorly fitted or top-dose-only effect; inactive means flat fitted curve, though single readings scatter.
Hello, when you answer, please use one of the following outcomes: active, inactive

Reference set, count: 8
>  <compound>
O=[N+]([O-])c1ccc(Cl)c(Cl)c1Cl

>  <label-class>
inactive

$$$$
>  <compound>
O=[N+]([O-])c1cc(Cl)c(Cl)c(Cl)c1

>  <label-class>
inactive

$$$$
>  <compound>
CCC#N

>  <label-class>
inactive

$$$$
>  <compound>
Cc1cnc[nH]1

>  <label-class>
inactive

$$$$
>  <compound>
CC(C)C#N

>  <label-class>
inactive

$$$$
>  <compound>
Cc1ccccc1[N+](=O)[O-]

>  <label-class>
inactive

$$$$
>  <compound>
O=[N+]([O-])/C=C/c1ccccc1

>  <label-class>
active

$$$$
>  <compound>
C=CC(=O)OCC(CC)CCCC (centres undefined)

>  <label-class>
inactive

$$$$

Query: I would be grateful if you could indicate the recorded call for `ClC(Cl)Br` .
Response: inactive

Cited source: PubChem BioAssay (NCATS)
